System: NCI-H460 lung
protocol_summary: NCI-60 one-dose screen, 48 h
experimental_setup: 10 µM unless noted
This is part of a sample that, as a whole, favours compounds with a hit. Of some 83,000 tested, about 20% had one in any assay. Active and inactive are the calls of the source. The calls were made as follows: active = growth percent below 10; inactive = the rest.
Outcomes: active, inactive

compound | group
Cc1nc(O)cc(=O)[nH]1 | inactive
Cc1cc(CO)c(O)c(CO)c1 | inactive
CCOC(C=O)OCC | inactive
Cc1ccc(Cc2ccc(C)cc2)cc1 | inactive
O=C1C=Cc2ccccc2/C1=C/c1[nH]c(=O)[nH]c1O | inactive
Nc1ccn(C2OC(CO)C(O)C2F)c(=O)n1 (stereo not drawn) | inactive
C=C(C)[C@@H]1CC[C@]2(CO)CC[C@]3(C)[C@H](CC[C@@H]4[C@@]5(C)CC[C@H](O)C(C)(C)[C@@H]5CC[C@]43C)[C@@H]12 | inactive
C#CC(O)c1ccccc1 (stereo not drawn) | inactive
N#Cc1ccc2nc[nH]c2c1 | inactive
CC(=O)O[C@H]1CC[C@]2(C)C3=C(C(=O)C[C@H]2C1(C)C)[C@]1(C)CC[C@H]([C@H](C)CCC(=O)O)[C@@]1(C)CC3=O | inactive
Oc1cc(O)c2c(c1)O[C@H](c1ccc(O)c(O)c1)[C@@H](O)C2 | inactive
NC(=S)N/N=C/c1ccc(OC(=O)COc2ccccc2)cn1 | inactive
CN(C(=S)S(=O)(=O)C12CC3CC(CC(C3)C1)C2)c1ccccc1 | inactive
COc1nc2ccccc2s1 | inactive
O=C1NC(=O)C(c2ccccc2)O1 (stereo not drawn) | inactive
CC(=O)NC(CCC(=O)c1ccccc1)C(=O)O (stereo not drawn) | inactive
O=C(Nc1ccccc1)c1ccco1 | inactive
CCOC(=O)C(C#N)=C1CCN(C)CC1 | inactive
O=C(O)CSCC(=O)Nc1cc(C(F)(F)F)ccc1Cl | inactive
C[n+]1cc2cc3c(cc2c2ccccc21)OCO3 | inactive
C1Cc2onc(-c3noc4c3CCC4)c2C1 | inactive
CCN1CCCC(N2c3ccccc3Sc3ccccc32)C1 (stereo not drawn) | inactive
Clc1cccc(Cl)c1C1CSc2ccccc2N=C1c1ccccc1 (stereo not drawn) | inactive
O=C1NC(=O)/C(=C\c2ccncc2)N1 | inactive
Oc1cccnc1CN1CCCC1 | inactive
COc1cc(N)c2ncccc2c1Cl | inactive
FC(F)(F)c1cc(NC2=NCCN=C(Nc3cc(C(F)(F)F)cc(C(F)(F)F)c3)SS2)cc(C(F)(F)F)c1 | inactive
C=COC(=O)CCOCC(CC)CCCC (stereo not drawn) | inactive
CCC(C)C1CCC(O)CC1 (stereo not drawn) | inactive
C/C(O)=C(/C=N/C(=S)Nc1ccccc1)C(=O)Nc1ccccc1C | inactive
C1=NCCc2ccccc21 | inactive
O=C(OCc1ccccc1)n1nnc2ccccc21 | inactive
COC1=C(OC)C(=O)C(SC/C=C(\C)CCCC(C)CCCC(C)CCCC(C)C)=CC1=O (stereo not drawn) | active
CCOC(=N)CC(=O)Nc1cccc(C)c1Cl | inactive
CCC(=O)Oc1c(C)cc(O)c2ccccc12 | inactive
NC(CCl)=NCC12CC3CC(CC(C3)C1)C2 | active
Cc1ccccc1CC(N)C(=O)O (stereo not drawn) | inactive
CCC1CCC(C)NC1 (stereo not drawn) | inactive
CC(C)N1CC(=O)N2CSCC2C1=O (stereo not drawn) | inactive
COc1ccc(Br)c(C=O)c1 | inactive
COc1c(CNC(=O)CCl)cc2[nH]c(C)cc2c1CNC(=O)CCl | inactive
CC(=O)c1cccc(NS(=O)(=O)c2ccc(C)cc2)c1 | inactive
Cc1c(Cl)cccc1NC(=S)NC(=O)c1ccccc1 | inactive
CCOC(=O)C(COS(C)(=O)=O)(COS(C)(=O)=O)C(=O)OCC | inactive
COc1ccc(/C=N/NC(=O)COCC(=O)N/N=C/c2ccc(OC)cc2)cc1 | inactive
c1ccc2[nH]c(Cc3nc4ccccc4[nH]3)nc2c1 | inactive
Oc1ccc2ccccc2c1CN1CCOCC1 | inactive
N#C/C(=C\c1ccc(C#N)cc1)C(=O)c1ccccc1 | inactive
Cc1ccc(C)c2c1CCC2=O | inactive
Cc1ccc[n+](CCC(N)=O)c1 | inactive
COC1OC(COC(C)=O)C(OC(C)=O)C(OC(C)=O)C1OC(C)=O (stereo not drawn) | inactive
CN1CCCN(C(c2ccccc2)c2ccc(Cl)cc2)CC1 (stereo not drawn) | inactive
COc1cccc(N=CNc2cccc(OC)c2)c1 | inactive
